Each recorded value in this set is attributed to patent US20030119023.

Molecular target: 3x2F ZGL (artificial)
Sequence (chain, as listed by the source): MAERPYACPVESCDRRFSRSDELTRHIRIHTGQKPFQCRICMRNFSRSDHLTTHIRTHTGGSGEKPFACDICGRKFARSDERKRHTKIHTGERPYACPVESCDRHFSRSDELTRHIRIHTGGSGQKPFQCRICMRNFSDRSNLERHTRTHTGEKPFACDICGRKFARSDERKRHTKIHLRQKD
Assay: EMSA; apparent Kd
Conditions: label: 32P
Metric name: Kd (nM)
Give bare numbers, in nM.

Give me Kd for each of these binders, listed below.
1. bsD (12/34/56) (dsDNA) DNA 1: GCGGACTGCGGCGTTGGGCG DNA 2: CGCCCAACGCCGCAGTCCGC
2. bsE (12//34//56) (dsDNA) DNA 1: GCGGAGTCGCGGCGTCTGGGCG DNA 2: CGCCCAGACGCCGCGACTCCGC

[0.005, 11]
